Test system: MCF7 breast
Assay: NCI tumour cell line growth inhibition, 48 h
Answer each item with its documented TGI.

See these solved cases before continuing.
compound: CC1(C)CCC(C)(C)c2cc(NC(=O)c3ccc(C(=O)O)cc3)ccc21
TGI: > 83.2 µM

compound: CC1=CC(=O)N(n2c(-c3ccccc3)n[nH]c2=O)C1=O
TGI: > 100 µM

compound: Cc1ccccc1C(C(=O)NC1CCCCC1)N(C(=O)CNc1ccc(C#N)cc1)c1cccc(F)c1 (centres undefined)
TGI: > 100 µM

// TGI lookup, compound = Cc1ccccc1Nc1nc(NNC(=O)Cc2ccccc2)nc(NNC(=O)c2ccncc2)n1 , result: > 10 µM

---

What TGI was measured for each of the following?
Tested on: HCT-15 colon
Test: NCI tumour cell line growth inhibition, 48 h

Below are worked cases with known answers.
structure.notation: COC(=O)[C@@H](C)C[C@H](Cc1ccccc1)NC(=O)c1csc([C@@H](C[C@H](C(C)C)N(C)C(=O)[C@@H](NC(=O)[C@H]2CCCN2C)C2CC2)OC(C)=O)n1
measured.value: > 25 µM
--
structure.notation: O=S(=O)(O)c1ccc2c(N=Nc3ccccc3)c(O)ccc2c1
measured.value: > 100 µM
--
structure.notation: CC(=O)Oc1ccc2cc(-c3ccc(OC(C)=O)c(OC(C)=O)c3)c(=O)oc2c1
measured.value: > 100 µM

Now for another entry.
CCCC(=O)OC[n+]1ccc(-c2c(COC(=O)NC(C)C)c(COC(=O)NC(C)C)c3n2CCC3)cc1 yielded TGI of > 100 µM
